Test system: human non small cell lung cancer (NCI-H460)
Test: Inhibition of tumour cell proliferation in vitro, NCI-H460 ([3H]thymidine incorporation)
Format: cell-based
Settings: human NCI-H460 cells, 24 hours, DNA synthesis by [3H]thymidine incorporation
Field: IC50. Provide a value for each of the molecules that follow.

Q. Request - read-out IC50 | tested on human non small cell lung cancer (NCI-H460) | molecule N#CNC(=Nc1ccncc1)NCCCCCCCCCOc1ccccc1
A. 43 nM

Q. Request - read-out IC50 | tested on human non small cell lung cancer (NCI-H460) | molecule N#CN=C(NCCCCOc1ccccc1)Nc1ccncc1 [Prior art A, reference compound]
A. > 1000 nM

Q. Request - read-out IC50 | tested on human non small cell lung cancer (NCI-H460) | molecule N#CNC(=Nc1ccncc1)NCCCCCCCCCCOc1ccccc1
A. 49 nM

Q. Request - read-out IC50 | tested on human non small cell lung cancer (NCI-H460) | molecule N#CN=C(NCCCCCOc1ccccc1)Nc1ccncc1 [Prior art B, reference compound]
A. 67 nM
